tgt: GABA-A receptor; alpha-2/beta-3/gamma-2 (Homo sapiens, UniProt P18507+P28472+P47869)
assay-comment: Binding affinity for human GABA-A receptor alpha-2-beta-3-gamma-2 subunits in L(tk-) cells
pKi: −log10 of the molar value.
Record form. Attribute: pKi. Fill in for each entry.

pKi reported for this compound Clc1cccc(COc2nn3c(-c4ccccc4)nnc3c3ccccc23)c1 : < 6.00

The measured pKi associated with c1ccc(CSc2nn3c(-c4ccccc4)nnc3c3ccccc23)cc1 reads < 6.00

For this compound ( COc1ccc(-c2nnc3c4ccccc4c(=O)n(Cc4ccccc4)n23)cc1 ), measured pKi is < 6.00

====

tgt: GABA-A receptor; alpha-3/beta-3/gamma-2 (Homo sapiens, UniProt P18507+P28472+P34903)
assay-comment: Binding affinity for human GABA-A receptor alpha-3-beta-3-gamma-2 subunits in L(tk-) cells
measurement-label: log10(Ki) (log10 of the value in nM)
Log scale reminder: Ki in nM, then log10 taken.

Given item CC(C)c1nnc2c3ccccc3c(OCc3ccccn3)nn12 , the value recorded as its log10(Ki) is 1.59

The value of log10(Ki) measured for the compound Clc1ccc(COc2nn3c(-c4ccccc4)nnc3c3ccccc23)cc1 turned out to be 2.40

CCCc1nnc2c3ccccc3c(OCc3ccccn3)nn12 yielded log10(Ki) of 1.72

Input COCCN(CCOC)c1nn2c(-c3ccc(OC)cc3)nnc2c2ccccc12 . Output log10(Ki): 1.61

response.value for c1ccc(-c2nnc3c4ccccc4c(OCc4cnccn4)nn23)cc1 (field: log10(Ki)) = -0.15

====

Field: Ki. Provide a value for each of the compounds that follow.
tgt: GABA-A receptor; alpha-5/beta-3/gamma-2 (Homo sapiens, UniProt P18507+P28472+P31644)
assay-comment: Binding affinity for human GABA-A receptor alpha-5-beta-3-gamma-2 subunits in L(tk-) cells

Record Cc1ccc(-c2nc3ccc(C)cn3c2CC(=O)N(C)C)cc1 . Reported Ki: > 15000 nM

For record c1ccc(CNc2nn3c(-c4ccccc4)nnc3c3ccccc23)cc1 the listed Ki is > 1000 nM

Lab book: Ki of COc1ccccc1COc1nn2c(-c3ccccc3)nnc2c2ccccc12 noted as > 1000 nM

get_value(item= Clc1cccc(COc2nn3c(-c4ccccc4)nnc3c3ccccc23)c1 , readout=Ki) returns > 1000 nM

// sample CC(C)(C)c1nnc2c3ccccc3c(OCc3ccccn3)nn12 , its Ki was > 1000 nM

====

tgt: GABA-A receptor; alpha-3/beta-3/gamma-2 (Homo sapiens, UniProt P18507+P28472+P34903)
Sequence (P18507 whole entry): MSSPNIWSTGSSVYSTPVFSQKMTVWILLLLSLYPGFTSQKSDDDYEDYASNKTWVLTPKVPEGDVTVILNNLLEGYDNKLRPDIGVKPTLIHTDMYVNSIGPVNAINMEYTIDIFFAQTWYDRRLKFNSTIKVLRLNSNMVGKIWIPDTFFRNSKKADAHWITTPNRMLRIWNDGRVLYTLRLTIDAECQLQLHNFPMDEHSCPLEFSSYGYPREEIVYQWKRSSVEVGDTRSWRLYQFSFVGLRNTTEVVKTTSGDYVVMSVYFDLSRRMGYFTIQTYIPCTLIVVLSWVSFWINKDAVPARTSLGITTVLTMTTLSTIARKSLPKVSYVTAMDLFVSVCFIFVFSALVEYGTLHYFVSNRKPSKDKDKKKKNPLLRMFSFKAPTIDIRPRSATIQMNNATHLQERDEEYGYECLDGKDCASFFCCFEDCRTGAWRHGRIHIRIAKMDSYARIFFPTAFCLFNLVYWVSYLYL
Sequence (P28472 whole entry): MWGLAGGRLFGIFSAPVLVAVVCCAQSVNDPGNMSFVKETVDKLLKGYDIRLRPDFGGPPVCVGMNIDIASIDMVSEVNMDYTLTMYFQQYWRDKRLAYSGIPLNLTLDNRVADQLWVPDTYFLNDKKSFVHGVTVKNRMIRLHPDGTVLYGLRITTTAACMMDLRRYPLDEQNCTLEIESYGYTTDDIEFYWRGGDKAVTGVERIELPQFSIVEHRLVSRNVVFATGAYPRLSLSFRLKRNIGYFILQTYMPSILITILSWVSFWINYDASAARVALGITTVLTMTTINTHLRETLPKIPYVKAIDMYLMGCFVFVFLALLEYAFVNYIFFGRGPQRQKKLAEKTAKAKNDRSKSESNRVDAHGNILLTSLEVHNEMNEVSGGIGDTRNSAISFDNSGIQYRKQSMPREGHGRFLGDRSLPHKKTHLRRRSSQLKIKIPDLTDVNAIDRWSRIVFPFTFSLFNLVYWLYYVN
Sequence (P34903 whole entry): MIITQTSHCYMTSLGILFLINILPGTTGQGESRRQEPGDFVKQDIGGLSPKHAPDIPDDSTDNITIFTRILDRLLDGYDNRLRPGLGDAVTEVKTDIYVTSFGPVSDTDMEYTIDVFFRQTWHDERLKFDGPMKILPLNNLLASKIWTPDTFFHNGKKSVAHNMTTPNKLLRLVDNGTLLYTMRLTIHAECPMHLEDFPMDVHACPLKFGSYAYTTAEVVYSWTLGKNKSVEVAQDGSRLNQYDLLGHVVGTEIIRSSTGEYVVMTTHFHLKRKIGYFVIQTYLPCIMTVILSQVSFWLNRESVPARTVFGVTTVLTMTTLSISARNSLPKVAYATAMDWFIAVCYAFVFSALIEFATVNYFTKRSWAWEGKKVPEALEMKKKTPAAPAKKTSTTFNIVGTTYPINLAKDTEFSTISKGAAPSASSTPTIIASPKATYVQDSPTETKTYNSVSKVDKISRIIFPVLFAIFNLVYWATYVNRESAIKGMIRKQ
assay-comment: Binding affinity for human GABA-A receptor alpha-3-beta-3-gamma-2 subunits in L(tk-) cells
measurement-label: Ki (nM)
Write the answer as a number in nM, unit excluded.

// CCOC(=O)c1ncn2c1[C@@H]1CCCN1C(=O)c1cc(OC)ccc1-2 : Ki value = 11

Form: molecule = c1ccc(-c2nnc3c4c(c(OCc5ccccn5)nn23)C2CCC4CC2)cc1 ; Ki = 12

The recorded Ki for Cc1nnc2c3ccccc3c(OCc3ccccn3)nn12 is 81

Noted for Cc1ccnc(COc2nn3c(-c4ccccc4)nnc3c3ccccc23)c1 : its Ki reads 10

Reported Ki ( c1ccc(-c2nnc3c4ccccc4c(OCc4ccncc4)nn23)cc1 ) = 7.7

Recorded Ki (molecule Cc1ccc(-c2nnc3c4ccccc4c(OCc4ccccn4)nn23)cc1 ): 11

# Ki (molecule: C=Cc1nnc2c3ccccc3c(OCc3ccccn3)nn12 ) is 11

====

tgt: GABA-A receptor; alpha-1/beta-3/gamma-2 (Homo sapiens, UniProt P14867+P18507+P28472)
Sequence (P14867 whole entry, one chain of several): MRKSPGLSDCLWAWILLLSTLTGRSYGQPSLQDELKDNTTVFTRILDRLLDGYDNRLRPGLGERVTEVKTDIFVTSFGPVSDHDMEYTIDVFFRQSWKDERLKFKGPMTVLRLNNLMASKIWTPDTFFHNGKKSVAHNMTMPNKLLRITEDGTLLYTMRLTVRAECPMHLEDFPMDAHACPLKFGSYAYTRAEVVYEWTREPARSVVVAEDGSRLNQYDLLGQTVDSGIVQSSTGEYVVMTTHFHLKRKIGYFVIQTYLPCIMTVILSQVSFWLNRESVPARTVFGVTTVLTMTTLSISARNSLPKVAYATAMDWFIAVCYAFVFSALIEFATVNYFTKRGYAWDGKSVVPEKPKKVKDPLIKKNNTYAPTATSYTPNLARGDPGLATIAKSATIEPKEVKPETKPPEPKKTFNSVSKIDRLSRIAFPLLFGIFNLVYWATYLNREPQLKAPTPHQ
assay-comment: Binding affinity for human GABA-A receptor alpha-1-beta-3-gamma-2 subunits in L(tk-) cells
Threshold 30 nM. Ki below it: 1. Ki at it or above: 0.

Exam item: Hi there! Is Ki for COc1ccc(COc2nn3c(-c4ccccc4)nnc3c3ccccc23)cc1 below 30 nM, do you know?
Marked response: 0

Exam item: Regarding c1ccc(-c2nnc3c4ccccc4c(OCc4ccoc4)nn23)cc1 , kindly confirm whether its Ki is beneath 30 nM.
Marked response: 1

Exam item: State whether 30 nM exceeds Ki recorded for c1ccc(-c2nnc3c4c(c(OCc5ccccn5)nn23)CCCC4)cc1 .
Marked response: 1

Exam item: hey, is Ki for c1ccc(COc2nn3c(C4CCC4)nnc3c3ccccc23)nc1 lower than 30 nM or not?
Marked response: 0

Exam item: Does this compound meet the criterion Ki < 30 nM? c1ccc(-c2nnc3c4ccccc4c(OCc4ccncn4)nn23)cc1
Marked response: 1

====

tgt: GABA-A receptor; alpha-5/beta-3/gamma-2 (Homo sapiens, UniProt P18507+P28472+P31644)
assay-comment: Binding affinity for human GABA-A receptor alpha-5-beta-3-gamma-2 subunits in L(tk-) cells
For each entry below, report its pKi value.
pKi is a log-scale quantity: -log10 of the concentration expressed in molar.

// sample c1ccc(-c2nnc3c4c(c(OCc5ccccn5)nn23)CCCC4)cc1 , its pKi was 9.42

Recorded result, c1ccc(-c2nnc3c4ccccc4c(OCc4cccnc4)nn23)cc1 , pKi: 7.51

Noted for Fc1ccc(-c2nnc3c4ccccc4c(OCc4ccccn4)nn23)cc1 : its pKi reads 8.77

For record c1ccc(COc2nn3c(-c4ccccc4)nnc3c3ccccc23)cc1 the listed pKi is 7.42

Reported pKi for c1ccc(-c2nnc3c4ccccc4c(OCC4CCNCC4)nn23)cc1 was 7.52

# pKi (compound: CC(C)c1nnc2c3ccccc3c(OCc3ccccn3)nn12 ) is 8.10

Record O=C1c2ccccc2C(=O)N1CCn1c(=O)c2ccccc2c(=O)n1Cc1ccccc1 , field pKi: 5.32

Just so you know, measured pKi for C=Cc1nnc2c3ccccc3c(OCc3ccccn3)nn12 came out at 8.49

The compound listed as CCOC(=O)c1ncn2c1[C@@H]1CCCN1C(=O)c1cc(OC)ccc1-2 has a reported pKi of 9.40

The reported numbers originate from ChEMBL document CHEMBL1149126.
